Test: Octanol-aqueous phosphate buffer distribution coefficient, log D of the compound at pH 7.4
Assay type: physicochemical
Endpoint Label: logD
Number only, no unit.

Solved cases below.
INSERT INTO assay_data (structure_notation, endpoint_label, assay_value) VALUES
  ('Cc1cccc(CN2CCn3cc(-c4nc(Nc5ccnn5C)ncc4C)cc3C2=O)n1', 'logD', 2.2),
  ('O=C1c2cc(-c3ccnc(NC4CCOCC4)n3)[nH]c2CCN1[C@H](CO)c1ccc(F)c(Cl)c1', 'logD', 3.6);

Param item = COCCN1C(=O)c2cc(-c3nc(Nc4ccnn4C)ncc3C)cn2C[C@H]1C ; retrieve measured logD.
1.7

---

Assay: Volume of distribution at steady state in rat plasma
Type: ADME
Details: read-out: Vdss
Endpoint Label: Vd (L/kg)
# output: bare number, implied unit L/kg

Name the recorded Vd for Cc1cccc(CN2C(=O)c3cc(-c4nc(Nc5ccnn5C)ncc4C)cn3C[C@H]2C)n1 .
1.3

---

Test: Oral bioavailability in dog
Type: ADME, organism-based, Canis lupus familiaris
Details: in vivo
Endpoint Label: bioavailability (%)
The reply should be a number in %, with the unit left off.

Consider the compound shown here: Cc1cccc(CN2C(=O)c3cc(-c4nc(Nc5ccnn5C)ncc4C)cn3C[C@H]2C)n1 What is its recorded bioavailability?
87

---

Assay: Octanol-aqueous phosphate buffer distribution coefficient, log D of the compound at pH 7.4
Assay type: physicochemical
# note: exactly 2 is not below, so it is rule not met; use rule met for logD strictly under it

Solved entries:
INSERT INTO measurements (molecule, group) VALUES
  ('COCCN1C(=O)c2cc(-c3nc(Nc4ccnn4C)ncc3C)[nH]c2C[C@H]1C', 'rule not met'),
  ('Cn1c(-c2ccnc(NC3CCOCC3)n2)cc2c1CCN(Cc1ccccc1)C2=O', 'rule not met'),
  ('COCCN1CCc2[nH]c(-c3ccnc(Nc4ccnn4C)n3)cc2C1=O', 'rule met'),
  ('COCCN1C(=O)c2cc(-c3ccnc(Nc4ccnn4C)n3)[nH]c2C[C@@H]1C', 'rule met'),
  ('O=C1NCCn2cc(-c3ccnc(NC4CCOCC4)n3)cc21', 'rule met');

Take the molecule Cn1c(-c2ccnc(NC3CCOCC3)n2)cc2c1CCNC2=O and say whether its logD is less than 2.
rule met

# TODO verify logD < 2 strictly for this molecule: COCCN1C(=O)c2cc(-c3ccnc(Nc4ccnn4C)n3)[nH]c2C[C@H]1C
rule met

---

Assay: Octanol-aqueous phosphate buffer distribution coefficient, log D of the compound at pH 7.4
Type: physicochemical
Endpoint Label: logD

INSERT INTO measurements (compound, endpoint_label, assay_value) VALUES
  ('O=C1c2cc(-c3ccnc(NC4CCOCC4)n3)[nH]c2CCN1[C@H](CO)c1ccc(Cl)c(F)c1', 'logD', 3.5);

Please look up its logD: O=C1c2cc(-c3ccnc(NC4CCOCC4)n3)[nH]c2CCN1[C@H](CO)c1ccccc1
2.6

Please give the measured logD for this compound: Cc1cccc(CN2CCc3[nH]c(-c4ccnc(NC5CCOCC5)n4)cc3C2=O)n1
2.4

Any idea what its logD is? The compound is Cc1cccc(CN2C(=O)c3cc(-c4ccnc(Nc5ccnn5C)n4)cn3CC2C)n1 (single isomer, unassigned; isomer 2)
2.3

Need logD, item COCCN1C(=O)c2cc(-c3nc(Nc4ccnn4C)ncc3C)cn2C[C@@H]1C
1.6

If you can, please state the reported logD value of COCCN1CCc2[nH]c(-c3ccnc(NC4CCOCC4)n3)cc2C1=O .
1.6

# get_value(readout='logD', item= CN1CCN(c2ccc(Nc3nccc(-c4cc5c([nH]4)CCNC5=O)n3)cc2)CC1 )
1.5

Consider the compound O=C1c2cc(-c3ccnc(NC4CCOCC4)n3)[nH]c2CCN1Cc1ccccc1 and give its measured logD.
3.2

Recorded values, source ChEMBL document CHEMBL4049432.
